assay-system: human PAD4 (Homo sapiens, UniProt Q9UM07)
Construct: human PAD4 (NM_012387), A2P663, was PCR amplified; His-SUMO (N, cleaved yes)
Sequence (Q9UM07 2-663): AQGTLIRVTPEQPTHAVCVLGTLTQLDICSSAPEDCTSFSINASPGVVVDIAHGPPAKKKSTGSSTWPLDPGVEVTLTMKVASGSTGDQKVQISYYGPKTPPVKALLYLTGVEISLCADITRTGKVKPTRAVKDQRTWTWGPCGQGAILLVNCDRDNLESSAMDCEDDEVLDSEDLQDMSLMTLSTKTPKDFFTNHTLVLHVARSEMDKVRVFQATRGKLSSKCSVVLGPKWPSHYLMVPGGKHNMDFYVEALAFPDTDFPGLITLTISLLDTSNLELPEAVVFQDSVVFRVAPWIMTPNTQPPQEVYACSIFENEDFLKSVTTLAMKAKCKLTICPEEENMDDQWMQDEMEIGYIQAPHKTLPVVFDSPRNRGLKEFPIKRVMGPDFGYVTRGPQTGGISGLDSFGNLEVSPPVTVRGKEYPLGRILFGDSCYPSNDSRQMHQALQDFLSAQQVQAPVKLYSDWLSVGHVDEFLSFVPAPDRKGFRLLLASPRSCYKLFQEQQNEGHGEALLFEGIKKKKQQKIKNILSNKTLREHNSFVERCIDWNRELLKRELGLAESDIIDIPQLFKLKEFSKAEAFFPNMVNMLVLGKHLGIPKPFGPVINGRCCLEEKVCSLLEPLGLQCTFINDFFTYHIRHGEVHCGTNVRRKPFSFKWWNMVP
experiment-notes: In vitro PAD4 BAEE biochemical assay
experimental-conditions: human PAD4, BAEE substrate; 5 nM PAD4, 2 mM calcium chloride, 3 mM BAEE; geometric mean of multiple experiments
endpoint-label: IC50 (nM)
Please state the figure in nM; there is no need to write the unit.

Reference set, count: 4
COc1cc(C(=O)N[C@H]2CNCC[C@@H]2C)cc2nc(-c3cc4ccc(N(C(F)F)S(C)(=O)=O)nc4n3CC3CC3)c(C)n12 [Example 288]: 8360
CCOC(=O)C1CC1c1c(-c2cc3ccc(N(C(F)F)S(C)(=O)=O)nc3n2CC2CC2)nc2cc(C(=O)N3CCC[C@@H](N)C3)ccn12 (some centres unmarked): 2490
COc1cc(C(=O)N2CC[C@@H](O)[C@@H](N)C2)cc2nc(-c3cc4ccc(N(C(F)F)S(C)(=O)=O)nc4n3CC3CC3)c(C)n12: 144
COc1cc(C(=O)N2[C@@H]3C[C@@H](N)[C@H]2CC3C)cc2nc(-c3cc4ccc(N(C(F)F)S(C)(=O)=O)nc4n3CC3CC3)c(C)n12 (some centres unmarked): 711

Recall the recorded IC50 for COc1cc(C(=O)N2[C@H]3CC[C@@H]2[C@H](N)C3)cc2nc(-c3cc4ccc([C@@H](C)NC(=O)NCc5ccncc5)nc4n3CC3CC3)c(C)n12 with human PAD4 (Homo sapiens, UniProt Q9UM07) and state it.
77.3

Here is the next compound: COc1cc(C(=O)N2[C@H]3CC[C@@H]2[C@H](N)C3)cc2nc(-c3cc4ccc([C@@H](C)NC(=O)c5ccccn5)nc4n3CC3CC3)c(C)n12
181

----------
assay-system: human PAD4 (Homo sapiens)
Construct: human PAD4 (NM_012387), A2P663, was PCR amplified; His-SUMO (N, cleaved yes)
experiment-notes: In vitro PAD4 BAEE biochemical assay
experimental-conditions: human PAD4, BAEE substrate; 5 nM PAD4, 2 mM calcium chloride, 3 mM BAEE; geometric mean of multiple experiments
Let's look at some molecules and their measured IC50.
Report as a plain number; the unit nM is understood.

Answered cases to consult:
COc1cc(C(=O)N2[C@H]3CC[C@@H]2[C@H](N)C3)cc2nc(-c3cc4ccc([C@@H](C)NC(=O)c5cocn5)nc4n3CC3CC3)c(C)n12: 56
COc1cc(C(=O)N2[C@H]3CC[C@@H]2[C@H](N)C3)cc2nc(-c3cc4ccc(C5CCCN(C(=O)C(C)(C)C)C5)nc4n3CC3CC3)c(C)n12 (stereo partly drawn): 618
COc1cc(C(=O)N2[C@H]3CC[C@@H]2[C@H](N)C3)cc2nc(-c3cc4ccc(C5CCN(C(C)=O)CC5)nc4n3CC3CC3)c(C)n12: 220
CC(C)c1c(-c2cc3ccc(N(C(F)F)S(C)(=O)=O)nc3n2CC2CC2)nc2cc(C(=O)N3CCC[C@@H](N)C3)ccn12: 7040
COc1cc(C(=O)N2C[C@H]3CCN[C@H]3C2)cc2nc(-c3cc4ccc([C@@H](C)NC(=O)C56CC(F)(C5)C6)nc4n3CC3CC3)c(C)n12: 2060

Quick check: IC50 of COc1cc(C(=O)N2CCC3CC3(N)C2)cc2nc(-c3cc4ccc(N(C(F)F)S(C)(=O)=O)nc4n3CC3CC3)c(C)n12 (stereo not drawn) ?
403

COc1cc(C(=O)N2[C@H]3CC[C@@H]2[C@H](N)C3)cc2nc(-c3cc4ccc([C@@H](C)NC(=O)C(C)(C)C)nc4n3CC3CC3)c(C)n12 , same question.
76.3

For COc1cc(C(=O)N2[C@H]3CC[C@@H]2[C@H](N)C3)cc2nc(-c3cc4ccc(C5CCN(C(=O)N6CCCC6)CC5)nc4n3CC3CC3)c(C)n12 then?
228

What do we get for COc1cc(C(=O)N2[C@H]3CC[C@@H]2[C@H](N)C3)cc2nc(-c3cc4ccc([C@@H](C)NC(=O)c5ccccc5F)nc4n3CC3CC3)c(C)n12 ?
297

Same read-out for CCc1ccc2cc(-c3nc4cc(C(=O)N5CCCC(NCCO)C5)cc(OC)n4c3C)n(CC3CC3)c2n1 (stereo not drawn) ?
23000

Likewise for COc1cc(C(=O)N2CCC[C@@H](N)C2)cc2nc(-c3cc4ccc([C@@H](C)NC(=O)C(C)(C)O)nc4n3CC3CC3)c(C)n12 ?
76.2

How about this molecule: COc1cc(C(=O)N2CCC[C@@H](N)C2)cc2nc(-c3cc4ccc(-c5cccc6c5CN(C)C6=O)nc4n3CC3CC3)c(C)n12
6880

Next record, please: COc1cc(C(=O)N2[C@H]3CC[C@H](N)[C@@H]2CC3)cc2nc(-c3cc4ccc(N(C(F)F)S(C)(=O)=O)nc4n3CC3CC3)c(C)n12
3020

Now try CNC(=O)CC(C)c1ccc2cc(-c3nc4cc(C(=O)N5[C@H]6CC[C@@H]5[C@H](N)C6)cc(OC)n4c3C)n(CC3CC3)c2n1 (stereo partly drawn) .
78.9

Another molecule to look at: COc1cc(C(=O)N2[C@H]3CC[C@@H]2[C@H](N)C3)cc2nc(-c3cc4ccc([C@@H](C)NC(=O)C5CC6(CCC6)C5)nc4n3CC3CC3)c(C)n12
49.6

Next up: COc1cc(C(=O)N2[C@H]3CC[C@@H]2[C@H](N)C3)cc2nc(-c3cc4ccc([C@@H](C)NC(=O)C5(OC)CCC5)nc4n3CC3CC3)c(C)n12
27

Check COc1cc(C(=O)N2CCC[C@@H](N)C2)cc2nc(-c3cc4ccc([C@@H](C)N(C)C(C)=O)nc4n3CC3CC3)c(C)n12 too.
300

Repeat for the following molecule: CCc1ccc2cc(-c3nc4cc(C(=O)N5CCC6CCNC6C5)cc(OC)n4c3C)n(CC3CC3)c2n1 (stereo not drawn)
535

Next record, please: COc1cc(C(=O)N2[C@H]3CC[C@@H]2[C@H](N)C3)cc2nc(-c3cc4ccc(C5CCCN(C(=O)N6CCCC6)C5)nc4n3CC3CC3)c(C)n12 (stereo partly drawn)
344

// repeat for CCc1ccc2cc(-c3nc4cc(C(=O)N5CC6(CCCNC6)C5)cc(OC)n4c3C)n(CC3CC3)c2n1 and report
1700

Follow-up item: COc1cc(C(=O)N2[C@H]3CC[C@@H]2[C@H](N)C3)cc2nc(-c3cc4ccc(N5CCCN(C)S5(=O)=O)nc4n3CC3CC3)c(C)n12
113

Also CCc1ccc2cc(-c3nc4cc(C(=O)N5CC[C@H]6OCCN[C@H]6C5)cc(OC)n4c3C)n(CC3CC3)c2n1 ?
936

Another molecule to look at: COc1cc(C(=O)N2CCC[C@@H](N)C2)cc2nc(-c3cc4ccc([C@@H](C)NCC(F)(F)F)nc4n3CC3CC3)c(C)n12
521

Lookup COc1cc(C(=O)N2[C@H]3CC[C@@H]2[C@H](N)C3)cc2nc(-c3cc4ccc([C@@H](C)N5CCNC5=O)nc4n3CC3CC3)c(C)n12
83.1

----------
assay-system: human PAD4 (Homo sapiens)
Construct: human PAD4 (NM_012387), A2P663, was PCR amplified; His-SUMO (N, cleaved yes)
experiment-notes: In vitro PAD4 BAEE biochemical assay
experimental-conditions: human PAD4, BAEE substrate; 5 nM PAD4, 2 mM calcium chloride, 3 mM BAEE; geometric mean of multiple experiments
endpoint-label: pIC50
Scale for pIC50: -log10 of concentration given in mol/L; no unit attached.

COc1cc(C(=O)N2CCC[C@@H](N)C2)cc2nc(-c3cc4ccc(N(C)S(C)(=O)=O)nc4n3CC3CC3)c(C)n12: 6.77
CCC1C(N)C2CCC1N2C(=O)c1cc(OC)n2c(C)c(-c3cc4ccc(N(C(F)F)S(C)(=O)=O)nc4n3CC3CC3)nc2c1 (single isomer, unassigned) [Example 347]: 5.00
COc1cc(C(=O)N2[C@H]3CC[C@@H]2[C@H](N)C3)cc2nc(-c3cc4ccc([C@@H](C)NC(=O)CC5(OC)CCC5)nc4n3CC3CC3)c(C)n12: 7.08
COc1cc(C(=O)N2[C@H]3CC[C@@H]2[C@H](N)C3)cc2nc(-c3cc4ccc([C@@H](C)NC(=O)CS(C)(=O)=O)nc4n3CC3CC3)c(C)n12: 7.27
COc1cc(C(=O)N2CC[C@H]3CCCN[C@H]3C2)cc2nc(-c3cc4ccc([C@@H](C)NC(=O)C56CC(F)(C5)C6)nc4n3CC3CC3)c(C)n12 [Example 31]: 6.31

Let us move to another entry and its pIC50.
I'd like to know its pIC50. The molecule in question is COc1cc(C(=O)N2CCC[C@@H](N)C2)cc2nc(-c3cc4ccc(-c5cccnc5-c5ccccc5)nc4n3CC3CC3)c(C)n12
6.46
